Tested on: HEK-293T
Assay: Multiplex assay against HEK293T
Format: toxicity, cell-based
Details: human, 12 h, 10 µM, compound concentration 10 uM, replicate 2
Quantity: Population Hoechst High Intensity Objects (%)
Quick note: unit goes after the number.

Entry Cc1ccc(F)cc1C(=O)Nc1ccc(C(=O)N2Cc3cccn3Cc3ccccc32)c(Cl)c1 , Population Hoechst High Intensity Objects (%) reported as 6%

Entry Oc1c(CN2CCN(c3ccccn3)CC2)cc(Cl)c2cccnc12 , Population Hoechst High Intensity Objects (%) reported as 6%

Entry COc1cc(C(=O)N(CCCc2ccccc2)Cc2ccc(CC(=O)O)cc2)cc(OC)c1C , Population Hoechst High Intensity Objects (%) reported as 6%

###

For each record, write down the corresponding Population Pyknosed Nuclei (%).
System: HEK-293T
Assay: Multiplex assay against HEK293T
Type: toxicity, cell-based
Conditions: human, 48 h, 10 µM, compound concentration 10 uM, replicate 1
Dear colleague, please return just the value in %, with no unit written.

Entry C[C@@H]1C[C@H]2[C@@H]3CCC4=CC(=O)C=C[C@]4(C)[C@@]3(F)[C@@H](O)C[C@]2(C)[C@@]1(O)C(=O)CO , Population Pyknosed Nuclei (%) reported as 7

Entry N[C@@]1(C(=O)O)CO[C@H]2[C@H](C(=O)O)[C@H]21 , Population Pyknosed Nuclei (%) reported as 7

Entry O=C(O)Cc1ccccc1Nc1c(Cl)cccc1Cl , Population Pyknosed Nuclei (%) reported as 7

###

For each record, write down the corresponding Total Cell Count.
System: Fibroblast
Experiment: Multiplex assay against human fibroblast
Assay type: toxicity, cell-based
Conditions: 24 h, 10 µM, compound concentration 10 uM, replicate 2
# print the numeric value only

Entry c1cc(OCCCN2CCCCC2)ccc1CN1CCCCC1 [JNJ-5207852] , Total Cell Count reported as 118

Entry Oc1c(CN2CCN(c3ccccn3)CC2)cc(Cl)c2cccnc12 , Total Cell Count reported as 134

Entry COc1c(C)cc(NC(=O)c2nn(Cc3ccc(F)cc3)c3c2CN(C(=O)c2ccc[nH]2)C[C@]3(C)C(N)=O)cc1C , Total Cell Count reported as 110

Entry CN1CCN2c3ncccc3Cc3ccccc3C2C1 (stereo unspecified) [MIRTAZAPINE] , Total Cell Count reported as 136

Entry O=C(O)c1cc2ccccc2c(Cc2c(O)c(C(=O)O)cc3ccccc23)c1O [PAMOIC ACID] , Total Cell Count reported as 170

Entry O=C(NCCO)c1cccc(-c2cc(Nc3ccc(OC(F)(F)F)cc3)ncn2)c1 , Total Cell Count reported as 187

Entry Cc1ccc(C(C)(O)c2nc3ccccc3s2)c(C)c1 (stereo unspecified) , Total Cell Count reported as 143

Entry C[C@H](NC(=O)c1c(C(F)F)nn(C)c1Oc1cccc(C(F)(F)F)c1)c1ccc(C(=O)O)cc1 [PALUPIPRANT] , Total Cell Count reported as 138

Entry CSc1ccccc1N1CCN(CCCCCC(=O)NC2CCCc3ccccc32)CC1.Cl (stereo unspecified) , Total Cell Count reported as 258

Entry CC[C@H]1OC(=O)[C@H](C)[C@@H](O[C@H]2C[C@@](C)(OC)[C@@H](O)[C@H](C)O2)[C@H](C)[C@@H](O[C@@H]2O[C@H](C)C[C@H](N(C)C)[C@H]2O)[C@@]2(C)CC(C)=C(O2)[C@H](C)[C@@H](O)[C@]1(C)O , Total Cell Count reported as 127

Entry O=S(=O)(c1ccccc1)c1cnc2c(N3CCNCC3)cccc2c1 [INTEPIRDINE] , Total Cell Count reported as 123
